Provenance of the data: ChEMBL document CHEMBL5291721

Molecular target: Alpha-2C adrenergic receptor (Homo sapiens, UniProt P18825); further: assay procedure not described here
Sequence (P18825 whole entry): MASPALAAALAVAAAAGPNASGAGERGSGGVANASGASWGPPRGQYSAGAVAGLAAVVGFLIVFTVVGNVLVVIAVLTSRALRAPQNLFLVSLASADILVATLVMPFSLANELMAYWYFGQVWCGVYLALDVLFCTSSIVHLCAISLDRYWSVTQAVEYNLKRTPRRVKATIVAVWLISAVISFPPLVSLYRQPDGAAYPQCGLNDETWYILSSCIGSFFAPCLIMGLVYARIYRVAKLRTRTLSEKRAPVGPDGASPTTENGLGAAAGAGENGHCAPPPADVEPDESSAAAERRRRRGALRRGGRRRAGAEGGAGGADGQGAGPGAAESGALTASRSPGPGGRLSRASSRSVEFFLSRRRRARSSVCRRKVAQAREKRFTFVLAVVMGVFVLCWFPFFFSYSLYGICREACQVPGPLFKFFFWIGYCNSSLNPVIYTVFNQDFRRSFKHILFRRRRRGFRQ
Assay type: functional
Provide the reported AC50 of each item.

Find the measured AC50 of Cc1cnc(Nc2ccc(OCCN3CCCC3)cc2)nc1Nc1cccc(S(=O)(=O)NC(C)(C)C)c1 [FEDRATINIB] and report it. 7.4 µM

Fill in AC50 for record N[C@@H](Cc1cc(I)c(Oc2cc(I)c(O)c(I)c2)c(I)c1)C(=O)O [LEVOTHYROXINE] > 30 µM

Report AC50, nothing else, for this compound: "CC(C)CN(C[C@@H](O)[C@H](Cc1ccccc1)NC(=O)O[C@H]1CCOC1)S(=O)(=O)c1ccc(N)cc1" > 10 µM

Quick one: give measured AC50 for CN(C)CCC(O)(c1ccccc1)c1ccccc1Cl (centres undefined) [CHLOPHEDIANOL] > 10 µM

State its AC50: CN(C)CCN(Cc1ccccc1)c1ccccn1 [TRIPELENNAMINE] 9.4 µM

Kindly indicate its recorded AC50. Item: CC(C(=O)O)c1ccc(C(=O)c2ccccc2)s1 (centres undefined) [TIAPROFENIC ACID] 15 µM

Note down AC50 recorded for Clc1ccc(COC(Cn2ccnc2)c2ccc(Cl)cc2Cl)c(Cl)c1 (centres undefined) [MICONAZOLE] > 10 µM

Look up AC50 of CCCCCCOC(=O)NC(=N)c1ccc(NCc2nc3cc(C(=O)N(CCC(=O)OCC)c4ccccn4)ccc3n2C)cc1 [DABIGATRAN ETEXILATE] and report it. > 30 µM

Output AC50 of CC(C)(C)NCC(O)COc1cccc2c1CC(O)C(O)C2 (centres undefined) [NADOLOL] > 10 µM

Return AC50 (reported value) for this compound: COc1ccc2c3c1O[C@H]1C(=O)CC[C@H]4[C@@H](C2)N(C)CC[C@]314 [HYDROCODONE] > 10 µM

Return value of AC50 for input CCN(CC)CCn1c(=O)c(Cc2ccc(OC)cc2)nc2ccccc21 [CAROVERINE] , no commentary. 21.5 µM

Please supply the value of reported AC50 for the item O=C(O)CCCC[C@@H]1SC[C@@H]2NC(=O)N[C@@H]21 [BIOTIN] > 10 µM

# return recorded AC50 for input CC(=O)Oc1cccc2c1C(=O)c1c(OC(C)=O)cc(C(=O)O)cc1C2=O [DIACEREIN] > 30 µM

Answer with the recorded AC50 of C[C@H](Nc1ncnc2[nH]cnc12)c1cc2cccc(Cl)c2c(=O)n1-c1ccccc1 [DUVELISIB] only. > 30 µM

Please give the documented AC50 of O=C1CN=C(c2ccccc2Cl)c2cc([N+](=O)[O-])ccc2N1 [CLONAZEPAM] > 10 µM

Given the compound CCC1(C)CC(=O)NC1=O (centres undefined) [ETHOSUXIMIDE] , write its reported AC50. > 10 µM

Determine from records and report AC50 for COc1ccc(C(=O)c2ccccc2)c(O)c1 [OXYBENZONE] > 30 µM

Give AC50 for CC(=O)NC[C@H]1CN(c2ccc(N3CCOCC3)c(F)c2)C(=O)O1 [LINEZOLID] > 30 µM

Indicate the recorded AC50 value for this compound: CCOc1cc2ncc(C#N)c(Nc3ccc(OCc4ccccn4)c(Cl)c3)c2cc1NC(=O)/C=C/CN(C)C [NERATINIB] > 10 µM

Please report AC50 for the following compound: C[C@]12CCC(=O)C=C1C=C[C@@H]1[C@@H]2CC[C@@]2(C)[C@H]1CC[C@@]21CCC(=O)O1 [CANRENONE] > 30 µM

For the compound CO/N=C(\C(=O)N[C@@H]1C(=O)N2C(C(=O)[O-])=C(C[n+]3ccc(N)n3CCO)CS[C@H]12)c1csc(N)n1 [CEFOSELIS] , give its reported AC50. > 30 µM

Report AC50, nothing else, for this compound: CS(=O)(=O)Nc1ccc([N+](=O)[O-])cc1Oc1ccccc1 [NIMESULIDE] > 30 µM

Answer with the recorded AC50 of COC(=O)c1ccc2c(c1)NC(=O)/C2=C(\Nc1ccc(N(C)C(=O)CN2CCN(C)CC2)cc1)c1ccccc1 [NINTEDANIB] only. > 30 µM

Using known records, supply AC50 for C[C@@H](O)[C@H]1C(=O)N2C(C(=O)O)=C(SCCN=CN)C[C@H]12 [IMIPENEM ANHYDROUS] > 300 µM

Tell me measured AC50 for C[C@]12CCC(=O)C=C1CC[C@H]1[C@@H]3CC[C@](O)(C(=O)CO)[C@@]3(C)C[C@H](O)[C@@]12F [FLUDROCORTISONE] please. > 10 µM

Provide AC50 value for the following compound: O=C(O)c1nn(Cc2ccc(Cl)cc2Cl)c2ccccc12 [LONIDAMINE] > 30 µM

Answer with the recorded AC50 of OCCOCCN1CCN(C(c2ccccc2)c2ccc(Cl)cc2)CC1 (centres undefined) [HYDROXYZINE] only. 2.3 µM

// fetch AC50 given entry CC(=O)OCC1=C(C(=O)O)N2C(=O)[C@@H](NC(=O)Cc3cccs3)[C@H]2SC1 [CEPHALOTHIN] > 30 µM

Write down AC50 measured for item C[C@H](Cn1cnc2c(N)ncnc21)OCP(=O)(O)O [TENOFOVIR ANHYDROUS] > 30 µM

Give AC50 for c1cnc2cc3c(cc2n1)[C@@H]1CNC[C@H]3C1 [VARENICLINE] > 30 µM

Give AC50 for CN(C)CCOCC(=O)NC12CC3CC(CC(C3)C1)C2 [TROMANTADINE] > 30 µM

Give the measured AC50 for CCC(=O)[C@@]1(C)[C@H](C)C[C@H]2[C@@H]3CCC4=CC(=O)C=C[C@]4(C)[C@H]3[C@@H](O)C[C@@]21C [RIMEXOLONE] > 10 µM

Query AC50 for CN(C)CCOC(=O)C(c1ccccc1)C1(O)CCCC1 (centres undefined) [CYCLOPENTOLATE] > 30 µM

Return value of AC50 for input CC(=O)N1CCN(c2ccc(OCC3COC(Cn4ccnc4)(c4ccc(Cl)cc4Cl)O3)cc2)CC1 (centres undefined) [KETOCONAZOLE] , no commentary. > 10 µM
